Tested on: granulocytes
assay.name: aberrant enzyme activities in febrile children, granulocytes (Table 7)
Format: cell-based, human
condition.details: P92 Adenitis
What aberrant enzyme activity, GRANS was measured for each of the following?

Fill in the blank: the reported aberrant enzyme activity, GRANS of CC(C)[C@H](N)C(=O)N[C@@H](CCCCN)C(=O)Nc1ccc2c(c1)Oc1cc(NC(=O)[C@H](CCCCN)NC(=O)[C@@H](N)C(C)C)ccc1C21OC(=O)c2ccccc21 [VK, (Val-Lys)2 Rho 110] is ____. .smallcircle.

Fill in the blank: the reported aberrant enzyme activity, GRANS of C[C@H](NC(=O)OCc1ccccc1)C(=O)NCC(=O)Nc1ccc2c(c1)Oc1cc(NC(=O)CNC(=O)[C@H](C)NC(=O)OCc3ccccc3)ccc1C21OC(=O)c2ccccc21 [Z-AG, (Z-Ala--Gly)2 Rho 110] is ____. .smallcircle.

Fill in the blank: the reported aberrant enzyme activity, GRANS of C[C@H](NC(=O)[C@@H](N)CCCCN)C(=O)Nc1ccc2c(c1)Oc1cc(NC(=O)[C@H](C)NC(=O)[C@@H](N)CCCCN)ccc1C21OC(=O)c2ccccc21 [KA, (Lys-Ala)2 Rho 110] is ____. .smallcircle.

====

What NORMAL LEUKOCYTE ENZYME ACTIVITY LYMPHS Mean was measured for each of the following?
Tested on: lymphocytes
assay.name: enzyme activity with fluorogenic substrate, normal lymphocytes (Table 3A)
Format: cell-based, human
Give the figure by itself; no unit, no explanation.

Fill in the blank: the reported NORMAL LEUKOCYTE ENZYME ACTIVITY LYMPHS Mean of CC(C)[C@H](N)C(=O)N[C@@H](CCCCN)C(=O)Nc1ccc2c(c1)Oc1cc(NC(=O)[C@H](CCCCN)NC(=O)[C@@H](N)C(C)C)ccc1C21OC(=O)c2ccccc21 [VK, (Val-Lys)2 Rho 110] is ____. 1.87

Fill in the blank: the reported NORMAL LEUKOCYTE ENZYME ACTIVITY LYMPHS Mean of C[C@@H](O)[C@H](NC(=O)OCc1ccccc1)C(=O)N1CCC[C@H]1C(=O)Nc1ccc2c(c1)Oc1cc(NC(=O)[C@@H]3CCCN3C(=O)[C@@H](NC(=O)OCc3ccccc3)[C@@H](C)O)ccc1C21OC(=O)c2ccccc21 [Z-TP 8.7-M] is ____. 30.99

Fill in the blank: the reported NORMAL LEUKOCYTE ENZYME ACTIVITY LYMPHS Mean of CC(C)[C@H](N)C(=O)N[C@@H](CCCCN)C(=O)Nc1ccc2c(c1)Oc1cc(NC(=O)[C@H](CCCCN)NC(=O)[C@@H](N)C(C)C)ccc1C21OC(=O)c2ccccc21 [VK-M, (Val-Lys)2 Rho 110 (modified)] is ____. 2.05

Fill in the blank: the reported NORMAL LEUKOCYTE ENZYME ACTIVITY LYMPHS Mean of O=C1OC2(c3ccc(OC4O[C@H](CO)[C@H](O)[C@H](O)[C@H]4O)cc3Oc3cc(OC4O[C@H](CO)[C@H](O)[C@H](O)[C@H]4O)ccc32)c2ccccc21 (stereo partly drawn) [GALAC, (D-galactose)2 fluorescein] is ____. 0.38

Fill in the blank: the reported NORMAL LEUKOCYTE ENZYME ACTIVITY LYMPHS Mean of O=C(NCC(=O)N1CCC[C@H]1C(=O)Nc1ccc2c(c1)Oc1cc(NC(=O)[C@@H]3CCCN3C(=O)CNC(=O)OCc3ccccc3)ccc1C21OC(=O)c2ccccc21)OCc1ccccc1 [Z-GP-M] is ____. 53.74

Attribution: patent US5698411A
